# measurement.target: T1, human IL-2Rγ (common cytokine receptor γ-chain) (human, UniProt P31785 23-262, limits assumed)
# T1 construct: Recombinant protein coated on the plate or immobilised on a CM5 chip; also called hu IL-2R; CD132
# T1 sequence: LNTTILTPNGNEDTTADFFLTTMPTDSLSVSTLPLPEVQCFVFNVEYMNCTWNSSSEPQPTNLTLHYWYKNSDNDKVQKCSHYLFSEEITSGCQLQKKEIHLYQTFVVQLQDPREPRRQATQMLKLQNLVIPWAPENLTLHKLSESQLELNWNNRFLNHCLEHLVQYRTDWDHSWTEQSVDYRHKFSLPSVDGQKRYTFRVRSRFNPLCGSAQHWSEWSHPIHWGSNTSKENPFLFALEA
# experiment.description: PE binding ELISA, periplasmic extract on coated protein
Everything with OD (PE binding ELISA) lower than 1 OD450 nm is condition not met; everything else, including exactly 1 OD450 nm, is condition met.

Is reported OD (PE binding ELISA) greater than or equal to 1 OD450 nm here: FJ1427_P035MP04D11 (VHH, VHH in periplasmic extract; also called clone nr) VHH: EVQLVESGGGLVQAGGSLRLSCAASGRTFGAVAVGWFRQVPGKEREFVAAINRSGSATKYADSVKGRFTISRDNAESPVFLQMNSLKPEDTAVYYCAADSLPYGRPYYFQTSAGEYDYWGQGTQVTVSS
condition met

Is reported OD (PE binding ELISA) greater than or equal to 1 OD450 nm here: FJ1427_P035MP04A06 (VHH, VHH in periplasmic extract; also called clone nr) VHH: QVQLVESGGGLVQPGGSLRLSCAASGRTLSRYAMGWFRQAPGKEREFVTANSWGGDTYYADSVQGRFTFSRDNAKNTVYLQMNSLQPEDTAVYYCAAAPTSFATTAYSSSNSYAYWGQGTQVTVSS
condition not met

Is reported OD (PE binding ELISA) greater than or equal to 1 OD450 nm here: FJ1427_P035MP04B08 (VHH, VHH in periplasmic extract; also called clone nr) VHH: QVQLVESGGGLVQAGGSLRLSCVASGRTLSRYAMGWFRQAPGKEREFVTANSWGGDTYYADSVQGRFTFSRDNAKNTVYLQMNSLQPEDTAVYYCAAAPTSFATTAYSSSNSYAYWGQGTQVTVSS
condition met

Is reported OD (PE binding ELISA) greater than or equal to 1 OD450 nm here: FJ1427_P035MP04B07 (VHH, VHH in periplasmic extract; also called clone nr) VHH: EVQLVESGGGWVQVGESLRLSCAPSGRTFVSGIMGWFRQTPGKEREFVARIILNNNSTRYTDSVKGRFTISRDSAKNTLYLQMNTLRPEDTAVYYCAARDRYGSGNSLSPSAYDYWGQGTQVTVSS
condition met

Is reported OD (PE binding ELISA) greater than or equal to 1 OD450 nm here: FJ1427_P035MP04C04 (VHH, VHH in periplasmic extract; also called clone nr) VHH: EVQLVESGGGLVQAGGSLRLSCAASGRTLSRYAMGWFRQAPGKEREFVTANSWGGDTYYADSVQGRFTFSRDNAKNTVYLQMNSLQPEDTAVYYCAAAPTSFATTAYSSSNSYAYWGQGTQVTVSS
condition met

Is reported OD (PE binding ELISA) greater than or equal to 1 OD450 nm here: FJ1427_P035MP04E08 (VHH, VHH in periplasmic extract; also called clone nr) VHH: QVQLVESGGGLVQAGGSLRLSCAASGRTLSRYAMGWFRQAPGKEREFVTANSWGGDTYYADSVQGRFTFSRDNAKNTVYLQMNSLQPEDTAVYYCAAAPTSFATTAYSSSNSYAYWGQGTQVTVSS
condition met

Is reported OD (PE binding ELISA) greater than or equal to 1 OD450 nm here: FJ1427_P035MP04C06 (VHH, VHH in periplasmic extract; also called clone nr) VHH: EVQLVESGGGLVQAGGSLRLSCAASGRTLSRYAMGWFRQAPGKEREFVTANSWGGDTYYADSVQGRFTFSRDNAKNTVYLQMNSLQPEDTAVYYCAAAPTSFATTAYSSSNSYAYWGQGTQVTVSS
condition not met

Is reported OD (PE binding ELISA) greater than or equal to 1 OD450 nm here: FJ1427_P035MP04D08 (VHH, VHH in periplasmic extract; also called clone nr) VHH: QVQLVESGGGLVQAGESLRLSCAASGPTASRVAVAWFRQVPGKEREFVAVVNRPGTMTKYADSVKGRFTISRDSAKNTVYLQMNSLKPEDTAVYYCAADSVPYGRPYYFQTSAGNYDYWGQGTQVTVSS
condition not met
